Reported RP-LC retention time values for a set of compounds
Experiment: gradient 5% acetonitrile 3 min, to 50% in 2 min, to 85% in 15 min, held 3 min, 100 µL/min
Conditions: column: Zorbax Extend-C18 2.1 x 50 mm; eluents: water / acetonitrile, 0.1% formic acid
The response must be a number in s with no trailing unit.

Recorded RP-LC retention time, per entry:
>>> reported_measurement("O=c1n(Cc2ccc3c(c2)OCO3)nc2c(S(=O)(=O)N3CCOCC3)cccn12")
736
>>> reported_measurement("CCCn1nc2n(c1=O)CCN(Cc1cn[nH]c1-c1ccc(C)c(C)c1)C2")
644
>>> reported_measurement("CCNc1cc(C)nc(N2CCN(S(=O)(=O)c3ccc(-c4ccccc4)cc3)CC2)n1")
829
>>> reported_measurement("CCOC(=O)c1[nH]c(C)c(C(=O)C(C)N(Cc2ccc(F)cc2)C(=O)C(C)C)c1C (stereo not given)")
950

Switching to the query record.
Value of measured RP-LC retention time for the entry COCCCN(C(=O)c1ccc(F)cc1)C(C)C(=O)c1c(C)[nH]c(C(=O)OC)c1C (stereo not given) : 754

----------
Assay: gradient 5% acetonitrile 3 min, to 50% in 2 min, to 85% in 15 min, held 3 min, 100 µL/min
Conditions: column: Zorbax Extend-C18 2.1 x 50 mm; eluents: water / acetonitrile, 0.1% formic acid
Rule: RP-LC retention time below 800 s gives label 1, anything at or above gives label 0.

>>> label_value("CCS(=O)(=O)Nc1cccc(OCc2nnc(-c3ccc(C)cc3)o2)c1")
"label 0"
>>> label_value("O=C(Cn1nc2c(cc1=O)CCCC2)NCCc1c[nH]c2ccc(F)cc12")
"label 1"

Now, please, on to the next molecule.
Item Cc1noc(C)c1Cc1c(C(=O)NCC23CCCC=C2NC(=O)CC3)noc1C (centres undefined) : RP-LC retention time beneath 800 s, strictly?
label 1

----------
Assay: gradient 5% acetonitrile 3 min, to 50% in 2 min, to 85% in 15 min, held 3 min, 100 µL/min
Settings: column: Zorbax Extend-C18 2.1 x 50 mm; eluents: water / acetonitrile, 0.1% formic acid
Reported RP-LC retention time values for a set of compounds
The response must be a number in s with no trailing unit.

>>> reported_measurement("CCNC(=O)C1CCc2sc(C(=O)N3CCOCC3)cc2C1 (centres undefined)")
632

Value of measured RP-LC retention time for the entry "CNC(=O)c1ccc(Nc2c(-c3ccc(OC)c(OC)c3)nc3cnccn23)cc1" : 606

----------
Reported RP-LC retention time values for a set of compounds
Test: gradient 5% acetonitrile 3 min, to 50% in 2 min, to 85% in 15 min, held 3 min, 100 µL/min
Settings: column: Zorbax Extend-C18 2.1 x 50 mm; eluents: water / acetonitrile, 0.1% formic acid
The response must be a number in s with no trailing unit.

Recorded RP-LC retention time, per entry:
>>> reported_measurement("COc1ccc(C(=O)N2CCC(n3c(-c4ccoc4)nc4cccnc43)C2)cc1OC (stereo not given)")
670
>>> reported_measurement("Cc1ccc(OCc2ccc(-c3nc(C#N)c(NCCCN(C)C)o3)o2)cc1")
717
>>> reported_measurement("COc1ccccc1CCN1CC(=O)N(c2cccc(C)c2)[C@@H]2CS(=O)(=O)C[C@@H]21")
850
>>> reported_measurement("CCc1nc(OCC(=O)Nc2cc(F)ccc2F)c2ccccc2n1")
854
>>> reported_measurement("Cc1ccc(CN2CCN(CC(=O)Nc3ccc(Cl)cc3)C(=O)C2=O)cc1")
836
>>> reported_measurement("c1ccc(-c2nc(-c3cnccn3)no2)c(OC2CNC2)c1")
583
>>> reported_measurement("COc1ccccc1NC(=O)c1[nH]c2cc(C)sc2c1CN1CCOCC1")
693
>>> reported_measurement("O=C(NCc1cccs1)c1ccc2c(c1)NC(=O)C1CCCCN21 (stereo not given)")
688
>>> reported_measurement("CCc1nc2cc(-c3noc(-c4cccc5[nH]ccc45)n3)ccc2o1")
1040

Switching to the query record.
Value of measured RP-LC retention time for the entry O=C(NCc1csc(C2CCCN(C(=O)C3CCCCC3)C2)n1)C1CC1 (stereo not given) : 748

----------
Assay: gradient 5% acetonitrile 3 min, to 50% in 2 min, to 85% in 15 min, held 3 min, 100 µL/min
Details: column: Zorbax Extend-C18 2.1 x 50 mm; eluents: water / acetonitrile, 0.1% formic acid
measured-metric: RP-LC retention time (s)
The response must be a number in s with no trailing unit.

Recorded RP-LC retention time, per entry:
>>> reported_measurement("O=C(c1ccc(Br)o1)N1CCC(c2nnc(-c3ccco3)s2)CC1")
765
>>> reported_measurement("CCOC(=O)c1ccccc1NC(=O)CSc1cc(N2CCCC2)ncn1")
914
>>> reported_measurement("COc1ccc(C2Cn3nnc(-c4nc(-c5ccc(C(F)(F)F)cc5)no4)c3CO2)cc1 (stereo not drawn)")
1270
>>> reported_measurement("CCOC(=O)c1ccc(Nc2ncccc2S(N)(=O)=O)cc1")
841
>>> reported_measurement("COc1ccc(Cl)c2c(=O)c3c([nH]c12)CCN(CC(=O)Nc1ccccc1F)C3")
604

Switching to the query record.
Value of measured RP-LC retention time for the entry "COc1ccc(-c2nnc(COc3cccc(NC(=O)C4CCCC4)c3)o2)cc1" : 959

----------
Assay: gradient 5% acetonitrile 3 min, to 50% in 2 min, to 85% in 15 min, held 3 min, 100 µL/min
Conditions: column: Zorbax Extend-C18 2.1 x 50 mm; eluents: water / acetonitrile, 0.1% formic acid
Reported RP-LC retention time values for a set of compounds
The response must be a number in s with no trailing unit.

>>> reported_measurement("CCN(CC)C(=O)N1CC(n2cc(C(=O)N3CCOCC3)nn2)C1")
612
>>> reported_measurement("CC(=O)N1c2ccc(S(=O)(=O)N3CCCC3)cc2CC1C(=O)Nc1c(C)cc(C)cc1C (centres undefined)")
876
>>> reported_measurement("Cc1cc(-c2ccc(S(=O)(=O)N3CCC(C(=O)NCCC(C)C)CC3)o2)n[nH]1")
783
>>> reported_measurement("O=C(C1=CN(c2ccccc2)c2cc(Cl)ccc2S1(=O)=O)N1CCCCC1")
930
>>> reported_measurement("COc1ccc(N2CCN(c3nc4ccccc4cc3-c3noc(C)n3)CC2)cc1")
681
>>> reported_measurement("COc1ccc(-c2cnc(NC(=O)[C@H]3CCCCN3S(=O)(=O)c3ccc(C)cc3)s2)cc1")
1270
>>> reported_measurement("Cc1cc(C)c(C)c(S(=O)(=O)NCC(=O)N2CCN(c3ccccc3)CC2)c1C")
966
>>> reported_measurement("COc1ccc(-c2nnc(Cc3nc(-c4cccc(C)c4)no3)o2)cc1OC")
983

Value of measured RP-LC retention time for the entry "Cc1cc(NCCN(C)C)n2nc(-c3ccccc3)c(C)c2n1" : 572

----------
Test: gradient 5% acetonitrile 3 min, to 50% in 2 min, to 85% in 15 min, held 3 min, 100 µL/min
Settings: column: Zorbax Extend-C18 2.1 x 50 mm; eluents: water / acetonitrile, 0.1% formic acid
measured-metric: RP-LC retention time
Answer with the value and then the unit.

>>> reported_measurement("COc1cc(CCC(=O)N2C[C@@H](C(N)=O)[C@H](c3n[nH]c(C)n3)C2)on1")
"566 s"
>>> reported_measurement("Cc1ccc(-c2nc3cnccn3c2Nc2ccc(C)cc2Br)cc1")
"1140 s"
>>> reported_measurement("c1ccc(C2(c3nc(-c4ccc(-n5cccn5)nc4)no3)CC2)cc1")
"1240 s"
>>> reported_measurement("C1CCCC(NC2=NCCO2)CCC1")
"680 s"
>>> reported_measurement("CCOc1ccc(-n2c(=O)c3sccc3n(Cc3nc(-c4ccc(C)c(C)c4)no3)c2=O)cc1")
"1130 s"
>>> reported_measurement("O=C(Cc1ccc(NC(=O)NC2CC2)cc1)NCC(F)(F)F")
"611 s"

Value of measured RP-LC retention time for the entry "Cn1cnc(S(=O)(=O)N2CCC(C(=O)N3CCN(c4cccc(Cl)c4)CC3)CC2)c1" : 780 s

Value of measured RP-LC retention time for the entry "CCNc1nc(C)cc(N2CCN(S(=O)(=O)c3cc(C(C)(C)C)ccc3OC)CC2)n1" : 803 s

Value of measured RP-LC retention time for the entry "CCN1C(=O)CCc2cc(NS(=O)(=O)c3ccc(C)c(F)c3)ccc21" : 800 s

Value of measured RP-LC retention time for the entry "Cc1ccc(NC(=O)C2CCN(S(=O)(=O)c3ccc4c(c3)CCCC(=O)N4)CC2)c(C)c1" : 774 s

----------
Assay: gradient 5% acetonitrile 3 min, to 50% in 2 min, to 85% in 15 min, held 3 min, 100 µL/min
Settings: column: Zorbax Extend-C18 2.1 x 50 mm; eluents: water / acetonitrile, 0.1% formic acid
Rule: RP-LC retention time below 700 s gives yes (1), anything at or above gives no (0).

>>> label_value("Cc1ccc(-c2noc(C3CCCN3C(=O)C(NS(=O)(=O)c3ccc(C)cc3)C(C)C)n2)cc1 (centres undefined)")
"no (0)"
>>> label_value("CSc1cccc(NC(=O)N2CCN(C3=CC4=NC(C)CN4C=N3)CC2)c1 (centres undefined)")
"yes (1)"

Now, please, on to the next molecule.
Item "CCn1nccc1C(=O)Nc1c(-c2cccc(F)c2)nc2sc(N3CCCCC3)nn12" : RP-LC retention time beneath 700 s, strictly?
no (0)
